Test system: rhesus H3 receptor
assay notes: GTPγS radioligand binding assay: inhibition of rhesus H3 constitutive functional activity in cell membranes (inverse agonism)
Format: biochemical, rhesus monkey (Macacca Mulatta)
Set-up: concentration or dose not given beside the values
applied conditions: negative value = below basal level
Reported Inverse Agonism: % inhibition of Basal GTPγS binding in Rhesus H3 is given for each of the following compounds.
Write the value in % as a bare number.

// below: answered compounds
CCCC1CCCN1C1CCN(c2ccc(N3CCC4(CCOCC4)C3=O)c(F)c2)C1 (centres unmarked) | −30
Cc1cc(N2CC[C@H](N3CCC[C@@H]3C)C2)ccc1N1CCCC2(CCOCC2)C1=O | −9
C[C@H]1CCCN1[C@H]1CCN(c2ccc(N3CCC4(CCOCC4)C3=O)cc2)C1 | −26
C[C@H]1CCCN1[C@H]1CCN(c2ccc(N3CCCC4(CCOCC4)C3=O)cc2)C1 | −20

Sample CCC1CCCN1C1CCN(c2ccc(N3CCC4(CCOCC4)C3=O)c(C(F)(F)F)c2)CC1 (centres unmarked) — what was its Inverse Agonism: % inhibition of Basal GTPγS binding in Rhesus H3?
−35

Do the same for `Cc1cc(N2CC[C@@H](N3CCC[C@@H]3C)C2)ccc1N1CCC2(CCOCC2)C1=O` please
−29

Also check `C[C@H]1CCCN1C1CCN(c2ccc(N3CCC4(CCOCC4)C3=O)c(C(F)(F)F)c2)CC1`
−19

And `C[C@H]1CCCN1[C@@H]1CCN(c2ccc(N3CCCC4(CCOCC4)C3=O)c(F)c2)C1` ?
−18

---

Listing of entries alongside the reported Ki.
test system: rhesus (Macacca Mulatta) H3 receptor (Macaca mulatta, UniProt Q865E1)
Construct: pcDNA5/FRT/TO (Invitrogen) containing the rhesus monkey (Macacca Mulatta) 445 amino acid H3 receptor
Sequence (Q865E1 1-445): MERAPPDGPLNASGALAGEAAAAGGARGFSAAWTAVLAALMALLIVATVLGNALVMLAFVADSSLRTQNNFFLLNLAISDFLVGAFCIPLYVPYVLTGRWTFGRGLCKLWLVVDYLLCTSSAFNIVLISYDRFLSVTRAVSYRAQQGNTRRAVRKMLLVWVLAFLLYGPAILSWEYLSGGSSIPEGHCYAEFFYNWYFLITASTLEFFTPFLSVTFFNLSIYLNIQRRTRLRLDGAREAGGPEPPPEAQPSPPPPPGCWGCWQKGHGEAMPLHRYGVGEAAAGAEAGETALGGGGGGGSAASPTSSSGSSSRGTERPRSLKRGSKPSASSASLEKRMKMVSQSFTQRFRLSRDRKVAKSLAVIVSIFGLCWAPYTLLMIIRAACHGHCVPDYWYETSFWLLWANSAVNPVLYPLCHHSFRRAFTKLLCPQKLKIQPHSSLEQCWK
assay notes: Rhesus H3 radioligand binding assay ([3H]-methylhistamine displacement, WGA SPA beads)
applied conditions: [3H]-methylhistamine 2 nM; membranes of Flp-In T-REx 293 cells expressing rhesus H3; Cheng-Prusoff
Only the number, expressed in nM, is required.

# example entries with known answers
C[C@H]1CCCN1C1CCN(c2ccc(N3CCC4(CCOCC4)C3=O)c(C(F)(F)F)c2)CC1 [Example 21] | 0.42
CC(C)C1CCCN1C1CCN(c2ccc(N3CCC4(CCOCC4)C3=O)c(C(F)(F)F)c2)CC1 (stereo not shown) [Example 19] | 100
Cc1cc(N2CC[C@@H](N3CCC[C@@H]3C)C2)ccc1N1CCCC2(CCOCC2)C1=O [Example 33] | 1.4
CCCC1CCCN1C1CCN(c2ccc(N3CCC4(CCOCC4)C3=O)c(F)c2)C1 (stereo not shown) [Example 9] | 170
C[C@@H]1CCCN1[C@@H]1CCN(c2ccc(N3CCCC4(CCOCC4)C3=O)cc2)C1 [Example 35] | 0.7
C[C@@H]1CCCN1[C@@H]1CCN(c2ccc(N3CCCC4(CCOCC4)C3=O)c(F)c2)C1 [Example 39] | 0.75
CCc1cc(N2CCC(N3CCC[C@@H]3C)C2)ccc1N1CCC2(CCOCC2)C1=O (stereo partly shown) [Example 26] | 0.13
C[C@H]1CCCN1[C@@H]1CCN(c2ccc(N3CCCC4(CCOCC4)C3=O)c(F)c2)C1 [Example 40] | 0.09

Turning now to a further record.
Request - read-out Ki | tested on rhesus (Macacca Mulatta) H3 receptor (Macaca mulatta, UniProt Q865E1) | molecule CCC1CCCN1C1CCN(c2ccc(N3CCC4(CCOCC4)C3=O)c(F)c2)C1 (stereo not shown) [Example 7]
5.2

---

Test system: rhesus H3 receptor
assay notes: GTPγS radioligand binding assay: inhibition of rhesus H3 constitutive functional activity in cell membranes (inverse agonism)
Format: biochemical, rhesus monkey (Macacca Mulatta)
Parameters: concentration or dose not given beside the values
applied conditions: negative value = below basal level
Procedure: Rhesus H3 membranes were prepared from the Flp-In T-REx 293 Cell Line (Invitrogen) stably transfected with pcDNA5/FRT/TO (Invitrogen) containing the rhesus monkey (Macacca Mulatta) 445 amino acid H3 receptor. (Genbank #AY231164). Stably transfected cultures were amplified in tissue culture flasks by standard tissue culture methods and induced to express rhesus H3 by exposure to 500 ng/ml tetracycline (Cellgro) for 24 hours. […]
outcome measure: Inverse Agonism: % inhibition of Basal GTPγS binding in Rhesus H3 (%)
The response must be a number in % with no trailing unit.

COCC1CCCN1C1CCN(c2ccc(N3CCC4(CCOCC4)C3=O)cc2)C1 (centres unmarked) | −26
Cc1cc(N2CC[C@H](N3CCC[C@H]3C)C2)ccc1N1CCC2(CCOCC2)C1=O | −36
C[C@@H]1CCCN1[C@H]1CCN(c2ccc(N3CCCC4(CCOCC4)C3=O)cc2)C1 | −12
Cc1cc(N2CCC(N3CCCC3C)C2)ccc1N1CCC2(CCOCC2)C1=O (centres unmarked) | −28
C[C@H]1CCCN1C1CCN(c2ccc(N3CCC4(CCOCC4)C3=O)c(F)c2)CC1 | −33

What Inverse Agonism: % inhibition of Basal GTPγS binding in Rhesus H3 value was documented for this molecule, `C[C@H]1CCCN1C1CCN(c2ccc(N3CCC4(CCOCC4)C3=O)cc2)CC1` ?
−29

Also CCCC1CCCN1C1CCN(c2ccc(N3CCC4(CCOCC4)C3=O)c(CC)c2)CC1 (centres unmarked) , if possible.
−18

Now try `Cc1cc(N2CC[C@H](N3CCC[C@H]3C)C2)ccc1N1CCCC2(CCOCC2)C1=O` .
−13

Try this molecule too: `Cc1cc(N2CC[C@@H](N3CCC[C@H]3C)C2)ccc1N1CCCC2(CCOCC2)C1=O`
−15

Subsequent entry: CC(C)C1CCCN1C1CCN(c2ccc(N3CCC4(CCOCC4)C3=O)c(C(F)(F)F)c2)CC1 (centres unmarked)
−8

And the next one, `C[C@H]1CCCCN1C1CCN(c2ccc(N3CCC4(CCOCC4)C3=O)c(F)c2)CC1` ?
−22

Record: CCC1CCCN1C1CCN(c2ccc(N3CCC4(CCOCC4)C3=O)c(F)c2)C1 (centres unmarked)
−35

Ok, now `Cc1cc(N2CC[C@@H](N3CCC[C@@H]3C)C2)ccc1N1CCCC2(CCOCC2)C1=O`
−19

Follow-up entry: CCCC1CCCN1C1CCN(c2ccc(N3CCC4(CCOCC4)C3=O)c(C(F)(F)F)c2)C1 (centres unmarked)
−12

Another molecule: `Cc1cc(N2CC[C@@H](N3CCC[C@H]3C)C2)ccc1N1CCC2(CCOCC2)C1=O`
−28

How about CC(C)C1CCCN1C1CCN(c2ccc(N3CCC4(CCOCC4)C3=O)c(F)c2)C1 (centres unmarked) ?
−22

Repeat with `Cc1cc(N2CC[C@H](N3CCC[C@@H]3C)C2)ccc1N1CCC2(CCOCC2)C1=O`
−25

---

test system: rhesus (Macacca Mulatta) H3 receptor (Macaca mulatta)
Construct: pcDNA5/FRT/TO (Invitrogen) containing the rhesus monkey (Macacca Mulatta) 445 amino acid H3 receptor
assay notes: Rhesus H3 radioligand binding assay ([3H]-methylhistamine displacement, WGA SPA beads)
applied conditions: [3H]-methylhistamine 2 nM; membranes of Flp-In T-REx 293 cells expressing rhesus H3; Cheng-Prusoff
outcome measure: Ki (nM)
Quick note: give the figure in nM, leave out the unit.

Solved entries (count: 2):
C[C@H]1CCCN1C1CCN(c2ccc(N3CCC4(CCOCC4)C3=O)c(F)c2)CC1 | 0.16
C[C@H]1CCCCN1C1CCN(c2ccc(N3CCC4(CCOCC4)C3=O)c(F)c2)CC1 | 0.45

Give its Ki value. Item: CCC1CCCN1C1CCN(c2ccc(N3CCC4(CCOCC4)C3=O)c(C(F)(F)F)c2)CC1 (centres unmarked)
4.3

Entry to check: `C[C@@H]1CCCN1[C@H]1CCN(c2ccc(N3CCCC4(CCOCC4)C3=O)cc2)C1`
1.7

Same question, CCCC1CCCN1C1CCN(c2ccc(N3CCC4(CCOCC4)C3=O)cc2)CC1 (centres unmarked) this time
13

Further, for `Cc1cc(N2CC[C@@H](N3CCC[C@H]3C)C2)ccc1N1CCC2(CCOCC2)C1=O` ?
28

Repeat with `Cc1cc(N2CC[C@H](N3CCC[C@H]3C)C2)ccc1N1CCC2(CCOCC2)C1=O`
38

One more molecule: CCCC1CCCN1C1CCN(c2ccc(N3CCC4(CCOCC4)C3=O)c(C(F)(F)F)c2)C1 (centres unmarked)
650

`Cc1cc(N2CC[C@H](N3CCC[C@@H]3C)C2)ccc1N1CCC2(CCOCC2)C1=O` ?
0.93

How about this molecule: `C[C@H]1CCCCN1C1CCN(c2ccc(N3CCC4(CCOCC4)C3=O)c(C(F)(F)F)c2)CC1`
1.5

Another molecule: `C[C@H]1CCCN1[C@@H]1CCN(c2ccc(N3CCCC4(CCOCC4)C3=O)cc2)C1`
0.26

// query: `C[C@H]1CCCN1[C@H]1CCN(c2ccc(N3CCC4(CCOCC4)C3=O)cc2)C1`
0.63

Input `C[C@H]1CCCN1C1CCN(c2ccc(N3CCC4(CCOCC4)C3=O)cc2)CC1`
0.52

CCc1cc(N2CCC(N3CCCC3COC)CC2)ccc1N1CCC2(CCOCC2)C1=O (centres unmarked) , same question.
4.9

Try the molecule `Cc1cc(N2CC[C@@H](N3CCC[C@H]3C)C2)ccc1N1CCCC2(CCOCC2)C1=O`
11

Next molecule up: CC(C)C1CCCN1C1CCN(c2ccc(N3CCC4(CCOCC4)C3=O)cc2)CC1 (centres unmarked)
16

Proceed to `C[C@H]1CCCN1[C@H]1CCN(c2ccc(N3CCCC4(CCOCC4)C3=O)cc2F)C1`
2.5
